# TARGET: human FXRα2 (Homo sapiens, UniProt Q96RI1)
# Sequence (Q96RI1 1-472 isoform Q96RI1-2): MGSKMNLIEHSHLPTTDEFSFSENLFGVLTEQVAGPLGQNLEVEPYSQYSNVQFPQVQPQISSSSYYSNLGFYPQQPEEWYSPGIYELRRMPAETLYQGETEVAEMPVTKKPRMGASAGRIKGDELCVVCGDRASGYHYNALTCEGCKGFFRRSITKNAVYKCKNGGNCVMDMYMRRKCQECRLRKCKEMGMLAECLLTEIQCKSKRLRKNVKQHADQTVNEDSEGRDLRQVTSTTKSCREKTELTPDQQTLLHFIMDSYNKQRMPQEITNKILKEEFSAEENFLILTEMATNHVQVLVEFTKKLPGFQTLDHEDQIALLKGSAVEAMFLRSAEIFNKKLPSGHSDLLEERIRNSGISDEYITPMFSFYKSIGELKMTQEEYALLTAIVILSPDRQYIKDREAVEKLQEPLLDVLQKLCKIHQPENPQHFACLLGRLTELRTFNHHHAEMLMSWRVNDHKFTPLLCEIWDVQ
# Sequence (P19793 1-462 partner): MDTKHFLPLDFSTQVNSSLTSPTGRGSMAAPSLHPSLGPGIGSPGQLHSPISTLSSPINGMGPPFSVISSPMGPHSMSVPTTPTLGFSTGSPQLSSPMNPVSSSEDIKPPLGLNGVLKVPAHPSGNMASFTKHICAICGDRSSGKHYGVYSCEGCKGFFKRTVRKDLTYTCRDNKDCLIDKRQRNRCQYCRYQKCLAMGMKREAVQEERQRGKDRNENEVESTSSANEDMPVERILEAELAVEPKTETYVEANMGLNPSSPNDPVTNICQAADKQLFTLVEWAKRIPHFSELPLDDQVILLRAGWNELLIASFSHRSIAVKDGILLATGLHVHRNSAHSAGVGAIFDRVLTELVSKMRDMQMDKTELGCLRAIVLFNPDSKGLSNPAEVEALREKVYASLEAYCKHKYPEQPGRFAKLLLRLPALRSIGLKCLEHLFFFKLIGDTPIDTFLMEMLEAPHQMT
# MEASUREMENT NOTES: FXR luciferase reporter assay in 293T cells transfected with FXRα2
# EXPERIMENTAL SETUP: read-out: EC50 for FXR (cell-based reporter assay, composite EC50); second column entry; 293T cells expressing FXRα2, RXRα, ASBT; repeated thrice for L-TyrCDCA only
OUTCOME MEASURE: EC50 (µM)
Your answer should be a plain number; it is taken to be in µM.

Entry C[C@H](CCC(=O)N[C@H](Cc1ccc(O)cc1)C(=O)O)[C@H]1CC[C@H]2[C@@H]3[C@H](O)C[C@@H]4C[C@H](O)CC[C@]4(C)[C@H]3CC[C@]12C [D-TyrCDCA, D-Tyrosochenodeoxycholic acid] ; EC50 = 6.8

Entry C[C@H](CCC(=O)N[C@@H](Cc1ccc(O)cc1)C(=O)O)[C@H]1CC[C@H]2[C@@H]3[C@H](O)C[C@@H]4C[C@H](O)CC[C@]4(C)[C@H]3CC[C@]12C [L-TyrCDCA, L-Tyrosochenodeoxycholic acid] ; EC50 = 7.8

Entry C[C@H](CCC(=O)N[C@@H](Cc1ccc(O)cc1)C(=O)O)[C@H]1CC[C@H]2[C@@H]3[C@H](O)C[C@@H]4C[C@H](O)CC[C@]4(C)[C@H]3C[C@H](O)[C@]12C [L-TyrCA, L-Tyrosocholic acid] ; EC50 = 46.3

Entry C[C@H](CCC(=O)N[C@H](Cc1ccc(O)cc1)C(=O)O)[C@H]1CC[C@H]2[C@@H]3[C@H](O)C[C@@H]4C[C@H](O)CC[C@]4(C)[C@H]3C[C@H](O)[C@]12C [D-TyrCA, D-Tyrosocholic acid] ; EC50 = 9.9
